system: LOX IMVI; assay: NCI tumour cell line growth inhibition, 48 h
Active and inactive are the calls of the source. Rule as the data show it: active = GI50 up to about 1.1 µM and inactive = higher.
Outcomes: active, inactive

{"Compound": "O=c1c2ccccc2n2c(-c3ccccc3O)nnc2n1-c1ccccc1", "Target or test system": "LOX IMVI", "Label": "inactive"}
{"Compound": "O=C(Nc1c(O)[nH]c(=S)[nH]c1=O)c1ccc2ccccc2n1", "Target or test system": "LOX IMVI", "Label": "inactive"}
{"Compound": "NC1CCCCC1.O=P(O)(O)C1(P(=O)(O)O)CC1", "Target or test system": "LOX IMVI", "Label": "inactive"}
{"Compound": "O=C(/C=C/c1ccc(-c2ccccc2)cc1)NCc1ccc(C(=O)NCCc2ccccc2)cc1", "Target or test system": "LOX IMVI", "Label": "inactive"}
{"Compound": "COc1ccc(-c2c(C#N)c(-c3ccc(C)cc3)n(NS(=O)(=O)c3ccccc3)c(=O)c2C#N)cc1", "Target or test system": "LOX IMVI", "Label": "inactive"}
{"Compound": "O=c1oc2cccnc2n1CCCCN1CCN(c2ccccc2)CC1", "Target or test system": "LOX IMVI", "Label": "inactive"}
{"Compound": "COc1cc(C(C[N+](=O)[O-])SC(C)=O)ccc1OCc1ccccc1 (stereo not given)", "Target or test system": "LOX IMVI", "Label": "inactive"}
{"Compound": "CNC(=O)NCCN1CC2CCC(CC2)C1", "Target or test system": "LOX IMVI", "Label": "inactive"}
{"Compound": "COC(=O)/C(=N/NC(N)=O)C(C(=O)OC)C(=O)C(=O)Nc1ccc(Cl)cc1 (stereo not given)", "Target or test system": "LOX IMVI", "Label": "inactive"}
{"Compound": "CC12CC3OC(=O)C1COC14OC5(C2C1=O)C(O)(CCC1C4CC2OC24CC=CC(=O)C14C)C(=O)OC35C (stereo not given)", "Target or test system": "LOX IMVI", "Label": "inactive"}
{"Compound": "Oc1cc(-c2ccc3ccccc3c2)nc2ncccc12", "Target or test system": "LOX IMVI", "Label": "inactive"}
{"Compound": "CC(O)CC(=O)CO[C@H]1[C@H](O)[C@@H](O)[C@@H](O)[C@@H]2NC(=O)c3c(cc4c(c3O)OCO4)[C@H]21 (stereo not given in full)", "Target or test system": "LOX IMVI", "Label": "active"}
{"Compound": "O=c1ccc2nc3ccc(O)cc3oc-2c1", "Target or test system": "LOX IMVI", "Label": "inactive"}
{"Compound": "COc1cc(CNc2nc3cc(C(F)(F)F)ccc3nc2-c2ccccc2)cc(OC)c1OC", "Target or test system": "LOX IMVI", "Label": "inactive"}
{"Compound": "CC(=O)OC1COC(Nc2ccc(C(C)=O)cc2)C(OC(C)=O)C1OC(C)=O (stereo not given)", "Target or test system": "LOX IMVI", "Label": "inactive"}
{"Compound": "CC(=O)O/N=C/c1ncccc1OC(C)=O", "Target or test system": "LOX IMVI", "Label": "inactive"}
{"Compound": "O=c1c2cc(S(=O)(=O)O)ccc2nc(COc2ccc(Oc3ccc(Cl)cc3Cl)cc2)n1C(=S)Nc1ccc(Cl)cc1", "Target or test system": "LOX IMVI", "Label": "inactive"}
{"Compound": "C[C@H]1CC[C@@]2(NC1)O[C@H]1C[C@H]3[C@@H]4CC[C@H]5C[C@@H](O)CC[C@]5(C)[C@H]4CC[C@]3(C)[C@H]1[C@@H]2C", "Target or test system": "LOX IMVI", "Label": "inactive"}
{"Compound": "COc1ccc(C2=NN=C3C(c4ccccc4)=Nc4ccccc4N3C2)cc1", "Target or test system": "LOX IMVI", "Label": "inactive"}
{"Compound": "CC12CCC(CC1(Cl)Cl)C2 (stereo not given)", "Target or test system": "LOX IMVI", "Label": "inactive"}
